System: K562
Assay: Growth inhibition of human K562 cells after 48 hrs by sulforhodamine B assay
Type: functional
Details: K562, 48 h, read-out: pTGI (converted)
Outcome Measure: log10 of TGI (log10 of the value in µM)
A value of 2 here means TGI of 100 in µM, since values are log10.

Reported log10 of TGI of COc1cc(/C=C/c2cc(O)c3c(c2)C[C@@H]2C(C)(C)[C@H](O)CC[C@@]2(C)O3)cc(O)c1C/C=C(\C)CCC=C(C)C : 0.84

Kindly note the recorded log10 of TGI for COCOc1cc(/C=C/c2cc(CO)c3c(c2)C[C@@H]2C(C)(C)[C@H](O)CC[C@@]2(C)O3)cc(OC)c1C/C=C(\C)CCC=C(C)C , which is 1.46

The compound COc1cc(/C=C/c2cc3c(c(OC)c2)O[C@]2(C)CC[C@@H](O)C(C)(C)[C@H]2C3)cc(O)c1C/C=C(\C)CCC=C(C)C showed log10 of TGI equal to 0.61

Recorded log10 of TGI (compound COc1cc(/C=C/c2ccc3c(c2)C[C@@H]2C(C)(C)[C@H](O)CC[C@@]2(C)O3)cc(O)c1C/C=C(\C)CCC=C(C)C ): 1.53

Value of log10 of TGI reported for the compound COCOc1cc(/C=C/c2cc(C=O)c3c(c2)C[C@@H]2C(C)(C)[C@H](O)CC[C@@]2(C)O3)cc(OC)c1C/C=C(\C)CCC=C(C)C is 1.68

====

System: KM12
Test: Growth inhibition of human KM12 cells after 48 hrs by sulforhodamine B assay
Type: functional
Conditions: KM12, 48 h, read-out: pTGI (converted)
Outcome Measure: log10 TGI (log10 of the value in µM)
Form field - Quantity: TGI; Unit: µM; Scale: log10

Entry under test: COc1cc(/C=C/c2cc3c(c(SC)c2)O[C@]2(C)CC[C@@H](O)C(C)(C)[C@H]2C3)cc(O)c1C/C=C(\C)CCC=C(C)C . Its log10 TGI was 1.31

Entry COc1cc(/C=C/c2cc(O)c3c(c2)C[C@@H]2C(C)(C)[C@H](O)CC[C@@]2(C)O3)cc(O)c1C/C=C(\C)CCC=C(C)C , log10 TGI reported as 0.46

log10 TGI for COc1cc(/C=C/c2ccc3c(c2)C[C@@H]2C(C)(C)[C@H](O)CC[C@@]2(C)O3)cc(O)c1C/C=C(\C)CCC=C(C)C is 0.81

GET /value?item= COCOc1cc(/C=C/c2cc(CO)c3c(c2)C[C@@H]2C(C)(C)[C@H](O)CC[C@@]2(C)O3)cc(OC)c1C/C=C(\C)CCC=C(C)C &field=log10 TGI returns 1.33

Looking up COc1cc(/C=C/c2cc3c(c(OC)c2)O[C@]2(C)CC[C@@H](O)C(C)(C)[C@H]2C3)cc(O)c1C/C=C(\C)CCC=C(C)C , I see its log10 TGI listed as 0.78

Form field log10 TGI, entry COCOc1cc(/C=C/c2cc(C=O)c3c(c2)C[C@@H]2C(C)(C)[C@H](O)CC[C@@]2(C)O3)cc(OC)c1C/C=C(\C)CCC=C(C)C : 1.88

Value of log10 TGI reported for the compound COc1cc(/C=C/c2cc(F)c3c(c2)C[C@@H]2C(C)(C)[C@H](O)CC[C@@]2(C)O3)cc(O)c1C/C=C(\C)CCC=C(C)C is 0.60
